Recorded Cell viability (% of Con. 10 μM) A549 values for a group of molecules are listed next.
tested on: A549; experiment: Assay for anticancer activity, cell viability (Cell Counting Kit-8); assay type: cell-based; conditions: A549 cells, 10 μM compound, 3 days
Counter-ions that a name gives are not always drawn.

MOLECULE	RESULT
O=Cc1cc2c(cc1-c1ccc3[nH]nc(C(=O)Nc4ccncc4)c3c1)OCO2	39 % of Con.
CC1(C)NCCc2ccc(NC(=O)c3n[nH]c4ccc(-c5cccnc5F)cc34)cc21	2 % of Con.
CC1(C)Cc2ccc(NC(=O)c3n[nH]c4ccc(-c5cccnc5F)cc34)cc2CN1	10 % of Con.
CC(C)n1cc(-c2ccc3[nH]nc(C(=O)Nc4ccncc4)c3c2)cn1	17 % of Con.
Cn1ncc2c(NC(=O)c3n[nH]c4ccc(-c5cccnc5F)cc34)ccnc21	24 % of Con.
O=Cc1ccc(-c2ccc3[nH]nc(C(=O)Nc4ccncc4)c3c2)o1	55 % of Con.

Query: Bench note: what Cell viability (% of Con. 10 μM) A549 did O=C(Nc1ccncc1)c1n[nH]c2ccc(-c3cnn(C4CCNCC4)c3)cc12 [Compound 73, hydrochloride] show?
Response: 49 % of Con.

Query: For O=C(Nc1ccc2c(c1)CN(C(=O)C(F)(F)F)CC2)c1nn(C2CCCCO2)c2ccc(-c3cccnc3F)cc12 (centres unmarked) then?
Response: 13 % of Con.

Query: For `O=C(Nc1ccncc1)c1n[nH]c2ccc(-c3cnn(Cc4ccccc4)c3)cc12` then?
Response: 20 % of Con.
